test system: K24384-001-R-PDC complex spheroid growth; experiment: Anticancer human tumor K24384-001-R-PDC patient-derived pancreatic adenocarcinoma cell line growth inhibition [AhR]; conditions: second compound 0.316 µM; first compound 0.1 µM; hits give low values;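 also: percent of DMSO vehicle-treated spheroid viability set as 100%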
QUANTITY NAME: viability, T/C (%)
Return type: number; implicit unit %.

Recorded results for 5 compounds are shown here.
COMPOUND	viability, T/C (%)
COc1cccc2c1C(=O)c1c(O)c3c(c(O)c1C2=O)CC(O)(C(=O)CO)CC3OC1CC(N)C(O)C(C)O1 (stereo unspecified) + Cc1ccccc1N=Nc1ccc(NC(=O)c2ccnn2C)c(C)c1	46
CC[C@@]1(O)C(=O)OCc2c1cc1n(c2=O)Cc2cc3c(CN(C)C)c(O)ccc3nc2-1 + Cc1cncc(-c2nc(NCCc3c[nH]c4ccccc34)c3ncn(C(C)C)c3n2)c1	38.2
CC1COCCN1c1cc(-c2ccnn2C)c2ccnc(-c3ccn[nH]3)c2n1 (stereo unspecified) + Cc1ccccc1N=Nc1ccc(NC(=O)c2ccnn2C)c(C)c1	54.2
O=C(c1cc(Cc2n[nH]c(=O)c3ccccc23)ccc1F)N1CCN(C(=O)C2CC2)CC1 + CC(CO)NC(=O)c1cc(-c2ccc(Cl)cc2)nn(-c2cnn(C)c2)c1=O	99.6
O=C(C=Cc1cccc(S(=O)(=O)Nc2ccccc2)c1)NO + CC(CO)NC(=O)c1cc(-c2ccc(Cl)cc2)nn(-c2cnn(C)c2)c1=O	130

Reported viability, T/C for CC1COCCN1c1cc(C2(S(C)(=N)=O)CC2)nc(-c2ccnc3[nH]ccc23)n1 (stereo unspecified) + CC(CO)NC(=O)c1cc(-c2ccc(Cl)cc2)nn(-c2cnn(C)c2)c1=O was 133

Reported viability, T/C for COc1cc(Nc2ncc3c(n2)-c2ccc(Cl)cc2C(c2c(F)cccc2OC)=NC3)ccc1C(=O)O + CC(CO)NC(=O)c1cc(-c2ccc(Cl)cc2)nn(-c2cnn(C)c2)c1=O was 79.9

Reported viability, T/C for COc1cc(C2c3cc4c(cc3C(OC3OC5COC(C)OC5C(O)C3O)C3COC(=O)C23)OCO4)cc(OC)c1O (stereo unspecified) + Cc1cncc(-c2nc(NCCc3c[nH]c4ccccc34)c3ncn(C(C)C)c3n2)c1 was 107

Reported viability, T/C for CC[C@@]1(O)C(=O)OCc2c1cc1n(c2=O)Cc2cc3c(CN(C)C)c(O)ccc3nc2-1 + Cc1ccccc1N=Nc1ccc(NC(=O)c2ccnn2C)c(C)c1 was 39.6

Reported viability, T/C for CC1(C)CCC(CN2CCN(c3ccc(C(=O)NS(=O)(=O)c4ccc(NCC5CCOCC5)c([N+](=O)[O-])c4)c(Oc4cnc5[nH]ccc5c4)c3)CC2)=C(c2ccc(Cl)cc2)C1 + Cc1cncc(-c2nc(NCCc3c[nH]c4ccccc34)c3ncn(C(C)C)c3n2)c1 was 140

Reported viability, T/C for Nc1ccn(C2OC(CO)C(O)C2(F)F)c(=O)n1 (stereo unspecified) + CC(CO)NC(=O)c1cc(-c2ccc(Cl)cc2)nn(-c2cnn(C)c2)c1=O was 92.5
